Quick reference: EC50 hGLP1R 100% hP (CreLuc) of the listed items.
# target entity: human GLP-1 receptor (human, UniProt P43220 24-463)
# protocol notes: cell-based or functional assay
Starred links: 1 amine or outer side, 2 acyl side, 3 side chain; linkers in the order of their positions; H or OH if unused. Non-standard residues stand in square brackets, D forms with d. Groups on a side chain read outwards from the residue. No end group written: not given here. *: point of attachment. C20 diacid = O=C(O)CCCCCCCCCCCCCCCCCCC(=O)*; C18 diacid = O=C(O)CCCCCCCCCCCCCCCCC(=O)*; γGlu = O=C(O)[C@H](CCC(=O)[*:2])N[*:1]; AEEA = NCCOCCOCC(=O)O; Aib = CC(C)(N)C(=O)O
API: value field is a number in nM; no unit string.

Study these solved cases before continuing.
YXEGTFTSDYSIXLEKQAQXAFVEWLIKGGPSEGASLRHYYNWLTRXRY (Aib at 2, 13, 20; bHGln (beta-homo-L-glutamine) at 47; K28 side chain acylated with C20DA-gGlu-gGlu-gGlu-gGlu-gGlu-gGlu-eLys; C-terminal amide (NH2)) [Compound 277]	1.29
Y[Aib]EGTFTSDYSI[Aib]LEKQAQ[Aib]AFVEWLIK([AEEA-AEEA-γGlu-γGlu-γGlu-γGlu-C20 diacid])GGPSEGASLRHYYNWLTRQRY-NH2 (also: TFA salt) [Compound 287]	6.34
YXEGTFTSDYSIXLEKQAQXEFVEWLIKGGPSEGASLRHYYNWLTRQRY (Aib at 2, 13, 20; K28 side chain acylated with C20DA-gGlu-gGlu-gGlu-gGlu-gGlu-gGlu-eLys; C-terminal amide (NH2)) [Compound 275]	21.7

[Q] For Y[Aib]EGTFTSDYSI[Aib]LEKQAQ[Aib]AFVEWLIK([γGlu-γGlu-γGlu-γGlu-γGlu-γGlu-C20 diacid])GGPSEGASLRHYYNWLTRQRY-NH2 (also: TFA salt) [Compound 305] , what is its reported EC50 hGLP1R 100% hP (CreLuc)?
[A] 7.08

[Q] For Y[Aib]EGTFTSDYSI[Aib]LEKQAQ[Aib]AFVEWLIK([γGlu-γGlu-γGlu-γGlu-C18 diacid])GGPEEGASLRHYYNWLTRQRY-NH2 (also: TFA salt) [Compound 272] , what is its reported EC50 hGLP1R 100% hP (CreLuc)?
[A] 15.6
